This section presents compounds with their documented inhibition values.
- experimental_target: Hexose transporter 1 (Plasmodium falciparum)
- assay_name: ST_JUDE_LEISH: Cytotoxicity at 2uM final concentration against transgenic Leishmania Mexicana promastigotes LmPfHT that are glucose transport deficient and complemented with the Plasmodium falciparum hexose transporter. Activity is measured by DNA content using SYBR green in vitro
- Format: functional
Your answer should be a plain number; it is taken to be in %.

Solved entries (count: 6):
The recorded inhibition for Cn1nccc1C(=O)NCCNCc1ccc(-c2ccc(-c3nc4cc(F)ccc4[nH]3)cc2)cc1 is 4.48

Lab note: CC(C)Sc1ccc(Cl)cc1CON1C(=N)N=C(N)NC1(C)C gave inhibition of 2.18

Memo: O=C(CCN1C(=O)c2ccccc2C1=O)N1CCN(CC=Cc2ccccc2)CC1 , reported inhibition: -1.32

inhibition recorded for this compound, CCOC(=O)NCCSC(C)(C)[C@H](NC(=O)[C@H](Cc1cc2ccccc2s1)[C@H](CC)N(O)C=O)C(=O)Nc1nccs1 , is 0.28

Lab note: measured inhibition of c1cc(CN2CCN(CCN3CCOCC3)CC2)cc(-c2ccc(-c3nc4ccccc4[nH]3)cc2)c1 was 6.81

For reference, reported inhibition for CCCCCCCCCN1CC[C@@H](CCCc2ccnc3ccc(O)cc23)[C@@H](CC)C1 stands at -2.37

More entries:
GET /value?item= Nc1ccc2nc(C=Cc3ccc(Cl)cc3)[nH]c2c1 &field=inhibition returns 3.93

compound Cc1ccc(CN2CCN(Cc3cccc(NC(=O)c4ccc5ccccc5c4)c3)CC2)cc1C , inhibition observed: 1.87

The compound listed as CCNc1cc(C(=O)N[C@@H](Cc2ccccc2)[C@H](O)CNC(CC)c2cccc(Cl)c2)cc(N2CCCC2=O)c1 (stereo partly drawn) shows inhibition equal to -0.75

inhibition for COc1cccc(C23NC(=Nc4nc5ccccc5[nH]4)NC2(c2cccc(OC)c2)NC(=Nc2nc4ccccc4[nH]2)N3)c1 (stereo not drawn) is 4.74

Form field inhibition, entry COc1ccc(C2CC(c3ccccc3O)=NN2C(=O)c2ccco2)cc1OC (stereo not drawn) : 1.48

Documented inhibition of CCOC(=O)c1ccc(NC(=O)Nc2cccc(-c3ccc(-c4nc5ccccc5[nH]4)cc3)c2)cc1 : 1.48

====

- experimental_target: Solute carrier family 2, facilitated glucose transporter member 1 (Homo sapiens)
- assay_name: ST_JUDE_LEISH: Cytotoxicity at 2uM final concentration against transgenic Leishmania Mexicana promastigotes LmGLUT1 that are glucose transport deficient and complemented with the human glucose transporter GLUT1. Activity is measured by DNA content using SYBR green in vitro
- Assay type: functional
reported_property: inhibition (%)
Output spec: scalar in %, unitless text.

Observe how each entry below is paired with its result.
Sure, the documented inhibition for O=C(Cc1ccc(NC(=O)c2ccc(O)c(-c3cccc([N+](=O)[O-])c3)c2)cc1)NCCN1CCCCC1 is -0.19

Documented inhibition of CCOCCCn1c(=N)c(C(=O)NCc2ccc(F)cc2)cc2c(=O)n3cccc(C)c3nc21 : 4.22

Entry CCc1c[nH]c2c(N3CCCCC3=O)cc(C(=O)N[C@@H](Cc3ccccc3)[C@H](O)CNCc3cccc(OC)c3)cc12 — recorded inhibition = -0.8

Measured inhibition of C=C(C)COc1ccc(-c2n[nH]c(C(F)(F)F)c2-c2ccccc2OC)c(O)c1 : 8.67

Short answer for Oc1ccc(CCNc2nc(NCCCOc3ccccc3-c3ccncc3)nc(N3CCNCC3)n2)cc1 : inhibition was 3.68

Entry CCc1cn2c3c(cc(C(=O)N[C@@H](Cc4ccccc4)[C@H](O)CNC4CC4)cc13)N(CC)S(=O)(=O)CC2 , inhibition reported as -0.74

Further cases:
Sample CCCc1cc(NC2CCN(C)CC2)nc(Nc2ccc(C)cc2)n1 ; inhibition observed: 5.35

compound C#C[C@H]1O[C@@H](n2cnc3c(Nc4cc(Br)cc(C(F)(F)F)c4)ncnc32)[C@H](O)[C@@H]1O , inhibition observed: 3.1

inhibition reading for CC(CN(C)C)C(=O)Nc1ccc(-c2cccc(-c3nc4cc(C(F)(F)F)ccc4[nH]3)c2)cc1 (centres undefined) : 1.9

Values from ChEMBL document CHEMBL3433997
